The origin of these recorded values is paper PMC6345774.

Test: Far-UV CD of isolated peptides in aqueous solution (helicity)
Format: physicochemical
Settings: from molar ellipticity at 222 nm assuming 100% helix = −31500 deg cm^2 dmol^−1; 5 °C, 50 mM phosphate pH 6.8
PROPERTY MEASURED: % Helix in water ([Θ]222) (%)
Please give a number only; it is taken to be in %.

CC(=O)N[C@@H](CCC(=O)O)C(=O)N[C@H](C(=O)N[C@@H](Cc1ccccc1)C(=O)N[C@@H](COP(=O)(O)O)C(=O)N[C@@H](CC(=O)O)C(=O)N[C@@H](CC(C)C)C(=O)N[C@@H](Cc1c[nH]c2ccccc12)C(=O)N[C@@H](CCCCN)C(=O)N[C@@H](CC(C)C)C(=O)N[C@@H](CC(C)C)C(=O)N1CCC[C@H]1C(=O)N[C@@H](CCC(=O)O)C(=O)N[C@@H](CC(N)=O)C(N)=O)[C@@H](C)O = 14.6

Recorded result, CC(=O)N[C@@H](CCC(=O)O)C(=O)N[C@H](C(=O)N[C@@H](Cc1ccccc1)C(=O)N[C@@H](CC(=O)O)C(=O)N[C@@H](CC(=O)O)C(=O)N[C@@H](CC(C)C)C(=O)N[C@@H](Cc1c[nH]c2ccccc12)C(=O)N[C@@H](CCCCN)C(=O)N[C@@H](CC(C)C)C(=O)N[C@@H](CC(C)C)C(=O)N1CCC[C@H]1C(=O)N[C@@H](CCC(=O)O)C(=O)N[C@@H](CC(N)=O)C(N)=O)[C@@H](C)O , % Helix in water ([Θ]222): 9

* * *

Target: human MDM2 (residues 2–125) (Homo sapiens)
Construct: human MDM2 (residues 2–125); made in house; host or cells: E. coli BL21 (DE3)
Experiment: Isothermal titration calorimetry of p53-peptide binding to MDM2
Details: ITC, 15 °C, 50 mM Tris-HCl pH 8.0, 250 mM NaCl, 0.5 mM TCEP
PROPERTY MEASURED: TΔS of binding (kcal/mol)
Please give a number only; it is taken to be in kcal/mol.

Recorded result, CC(=O)N[C@@H](CCC(=O)O)C(=O)N[C@@H](CC(=O)O)C(=O)N[C@@H](Cc1ccccc1)C(=O)N[C@@H](CC(=O)O)C(=O)N[C@@H](CC(=O)O)C(=O)N[C@@H](CC(C)C)C(=O)N[C@@H](Cc1c[nH]c2ccccc12)C(=O)N[C@@H](CCCCN)C(=O)N[C@@H](CC(C)C)C(=O)N[C@@H](CC(C)C)C(=O)N1CCC[C@H]1C(=O)N[C@@H](CCC(=O)O)C(=O)N[C@@H](CC(N)=O)C(N)=O , TΔS of binding: -3.96

* * *

Assay: Far-UV CD of isolated peptides in aqueous solution (helicity)
Assay type: physicochemical
Conditions: far-UV CD, 5 °C, 50 mM phosphate pH 6.8
PROPERTY MEASURED: molar ellipticity at 222 nm, [Θ]222 (deg cm^2 dmol^−1)
Please give a number only; it is taken to be in deg cm^2 dmol^−1.

Previously resolved entries follow.
CC(=O)N[C@@H](CCC(=O)O)C(=O)N[C@@H](CC(=O)O)C(=O)N[C@@H](Cc1ccccc1)C(=O)N[C@@H](CCC(=O)O)C(=O)N[C@@H](CC(=O)O)C(=O)N[C@@H](CC(C)C)C(=O)N[C@@H](Cc1c[nH]c2ccccc12)C(=O)N[C@@H](CCCCN)C(=O)N[C@@H](CC(C)C)C(=O)N[C@@H](CC(C)C)C(=O)N1CCC[C@H]1C(=O)N[C@@H](CCC(=O)O)C(=O)N[C@@H](CC(N)=O)C(N)=O = −3597
CC(=O)N[C@@H](CCC(=O)O)C(=O)N[C@@H](CC(=O)O)C(=O)N[C@@H](Cc1ccccc1)C(=O)N[C@@H](CO)C(=O)N[C@@H](CC(=O)O)C(=O)N[C@@H](CC(C)C)C(=O)N[C@@H](Cc1c[nH]c2ccccc12)C(=O)N[C@@H](CCCCN)C(=O)N[C@@H](CC(C)C)C(=O)N[C@@H](CC(C)C)C(=O)N1CCC[C@H]1C(=O)N[C@@H](CCC(=O)O)C(=O)N[C@@H](CC(N)=O)C(N)=O = −3313

Please turn your attention to the following entry.
Recorded result, CC(=O)N[C@@H](CCC(=O)O)C(=O)N[C@H](C(=O)N[C@@H](Cc1ccccc1)C(=O)N[C@@H](COP(=O)(O)O)C(=O)N[C@@H](CC(=O)O)C(=O)N[C@@H](CC(C)C)C(=O)N[C@@H](Cc1c[nH]c2ccccc12)C(=O)N[C@@H](CCCCN)C(=O)N[C@@H](CC(C)C)C(=O)N[C@@H](CC(C)C)C(=O)N1CCC[C@H]1C(=O)N[C@@H](CCC(=O)O)C(=O)N[C@@H](CC(N)=O)C(N)=O)[C@@H](C)OP(=O)(O)O , molar ellipticity at 222 nm, [Θ]222: −2547

* * *

Molecular target: human MDM2 (residues 2–125) (Homo sapiens, UniProt Q00987)
Construct: human MDM2 (residues 2–125); made in house; host or cells: E. coli BL21 (DE3)
Sequence (Q00987 2-125): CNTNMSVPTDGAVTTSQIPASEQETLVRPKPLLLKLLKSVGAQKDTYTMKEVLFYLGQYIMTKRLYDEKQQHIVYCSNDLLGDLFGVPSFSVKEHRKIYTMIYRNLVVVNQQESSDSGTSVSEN
Test: Stopped-flow fluorescence kinetics of p53-peptide binding to MDM2
Details: stopped-flow Trp fluorescence, 15 °C, 50 mM Tris-HCl pH 8.0, 250 mM NaCl, 0.5 mM TCEP; peptide 0.125 μM; y-axis intercept of pseudo-first-order plot; ± fitting error
The molecules listed here are annotated with their koff.
Please give a number only; it is taken to be in s⁻¹.

Previously resolved entries follow.
CC(=O)N[C@@H](CCC(=O)O)C(=O)N[C@H](C(=O)N[C@@H](Cc1ccccc1)C(=O)N[C@@H](CCC(=O)O)C(=O)N[C@@H](CC(=O)O)C(=O)N[C@@H](CC(C)C)C(=O)N[C@@H](Cc1c[nH]c2ccccc12)C(=O)N[C@@H](CCCCN)C(=O)N[C@@H](CC(C)C)C(=O)N[C@@H](CC(C)C)C(=O)N1CCC[C@H]1C(=O)N[C@@H](CCC(=O)O)C(=O)N[C@@H](CC(N)=O)C(N)=O)[C@@H](C)O [P53-E20] = 8
CC(=O)N[C@@H](CCC(=O)O)C(=O)N[C@@H](CCC(=O)O)C(=O)N[C@@H](Cc1ccccc1)C(=O)N[C@@H](CO)C(=O)N[C@@H](CC(=O)O)C(=O)N[C@@H](CC(C)C)C(=O)N[C@@H](Cc1c[nH]c2ccccc12)C(=O)N[C@@H](CCCCN)C(=O)N[C@@H](CC(C)C)C(=O)N[C@@H](CC(C)C)C(=O)N1CCC[C@H]1C(=O)N[C@@H](CCC(=O)O)C(=O)N[C@@H](CC(N)=O)C(N)=O [P53-E18] = 16

Simply: CC(=O)N[C@@H](CCC(=O)O)C(=O)N[C@H](C(=O)N[C@@H](Cc1ccccc1)C(=O)N[C@@H](CC(=O)O)C(=O)N[C@@H](CC(=O)O)C(=O)N[C@@H](CC(C)C)C(=O)N[C@@H](Cc1c[nH]c2ccccc12)C(=O)N[C@@H](CCCCN)C(=O)N[C@@H](CC(C)C)C(=O)N[C@@H](CC(C)C)C(=O)N1CCC[C@H]1C(=O)N[C@@H](CCC(=O)O)C(=O)N[C@@H](CC(N)=O)C(N)=O)[C@@H](C)O [P53-D20] , human MDM2 (residues 2–125) (Homo sapiens, UniProt Q00987), koff = 7

Simply: CC(=O)N[C@@H](CCC(=O)O)C(=O)N[C@@H](CC(=O)O)C(=O)N[C@@H](Cc1ccccc1)C(=O)N[C@@H](CO)C(=O)N[C@@H](CC(=O)O)C(=O)N[C@@H](CC(C)C)C(=O)N[C@@H](Cc1c[nH]c2ccccc12)C(=O)N[C@@H](CCCCN)C(=O)N[C@@H](CC(C)C)C(=O)N[C@@H](CC(C)C)C(=O)N1CCC[C@H]1C(=O)N[C@@H](CCC(=O)O)C(=O)N[C@@H](CC(N)=O)C(N)=O [P53-D18] , human MDM2 (residues 2–125) (Homo sapiens, UniProt Q00987), koff = 23

* * *

Assay: TFE titrations monitored by CD (helical population)
Format: physicochemical
Settings: from ΔG = [TFE]1/2 × m; 5 °C, 50 mM phosphate pH 6.8, peptide 40 μM; for 1% values the error was 10%
PROPERTY MEASURED: % Helix in water (from ΔG in TFE titrations) (%)
Please give a number only; it is taken to be in %.

Recorded result, CC(=O)N[C@@H](CCC(=O)O)C(=O)N[C@@H](CCC(=O)O)C(=O)N[C@@H](Cc1ccccc1)C(=O)N[C@@H](CO)C(=O)N[C@@H](CC(=O)O)C(=O)N[C@@H](CC(C)C)C(=O)N[C@@H](Cc1c[nH]c2ccccc12)C(=O)N[C@@H](CCCCN)C(=O)N[C@@H](CC(C)C)C(=O)N[C@@H](CC(C)C)C(=O)N1CCC[C@H]1C(=O)N[C@@H](CCC(=O)O)C(=O)N[C@@H](CC(N)=O)C(N)=O [P53-E18] , % Helix in water (from ΔG in TFE titrations): 7
